Assay: Oral bioavailability in mouse at 5 mg/kg
Format: ADME, organism-based
Conditions: in vivo
assay.endpoint: bioavailability

Return reported bioavailability; argument: "COc1ccc(F)c(-c2ccc(COc3cccc([C@@H](CC(=O)O)C4CC4)c3)cc2C2=CCCC2(C)C)c1" > 100%

====

Assay: Cmax in mouse at 5 mg/kg, po
Type: ADME, organism-based
Parameters: dose 5 mg/kg, route oral
Conditions: in vivo
assay.endpoint: Cmax (µM)
Your answer should be a plain number; it is taken to be in µM.

Return reported Cmax; argument: "COc1ccc(F)c(-c2ccc(COc3cccc([C@@H](CC(=O)O)C4CC4)c3)cc2C2=CCCC2(C)C)c1" 14

====

Test: Cmax in rat at 2 mg/kg, po
Assay type: ADME, organism-based
Set-up: dose 2 mg/kg, route oral
Settings: in vivo
assay.endpoint: Cmax (µM)
Reply with just the number (in µM).

Please give the measured Cmax for this compound: "COc1ccc(F)c(-c2ccc(COc3cccc([C@@H](CC(=O)O)C4CC4)c3)cc2C2=CCCC2(C)C)c1" 3.6

====

Experiment: Tmax in rat at 2 mg/kg, po and 0.5 mg/kg, iv
Assay type: ADME, organism-based
Details: in vivo
assay.endpoint: Tmax

Could you tell me which Tmax is on file for "COc1ccc(F)c(-c2ccc(COc3cccc([C@@H](CC(=O)O)C4CC4)c3)cc2C2=CCCC2(C)C)c1" ? 3.5 h

====

Assay: Clearance in mouse at 5 mg/kg, po and 1 mg/kg, iv
Type: ADME, organism-based
Conditions: in vivo
assay.endpoint: clearance (mL/min/kg)
The figure you give is taken to be in mL/min/kg; do not add the unit.

Would you mind telling me what clearance value was observed for "COc1ccc(F)c(-c2ccc(COc3cccc([C@@H](CC(=O)O)C4CC4)c3)cc2C2=CCCC2(C)C)c1" ? 3

====

Experiment: Tmax in mouse at 5 mg/kg, po and 1 mg/kg, iv
Format: ADME, organism-based
Settings: in vivo
assay.endpoint: Tmax
Write the quantity with the unit trailing the number.

What value of Tmax has been reported for the following compound? "COc1ccc(F)c(-c2ccc(COc3cccc([C@@H](CC(=O)O)C4CC4)c3)cc2C2=CCCC2(C)C)c1" 1 h

====

Molecular target: Free fatty acid receptor 1 (Homo sapiens, UniProt O14842)
Sequence (O14842 whole entry): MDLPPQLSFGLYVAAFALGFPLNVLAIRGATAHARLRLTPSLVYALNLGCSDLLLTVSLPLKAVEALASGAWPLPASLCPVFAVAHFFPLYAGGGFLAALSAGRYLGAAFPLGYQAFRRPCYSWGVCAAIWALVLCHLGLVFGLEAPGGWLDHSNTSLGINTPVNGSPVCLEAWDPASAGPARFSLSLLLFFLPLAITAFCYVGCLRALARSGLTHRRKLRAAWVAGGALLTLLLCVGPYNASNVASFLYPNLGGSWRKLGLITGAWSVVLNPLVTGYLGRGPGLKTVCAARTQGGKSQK
Assay: Agonist activity at GPR40 expressed in CHO cells after 20 seconds by aequorin bioluminescence assay in presence of 0.1 % human serum
Type: functional, cell-based
Returns: string. Value is Y if measured EC50 is below 2000 nM, and N if it is greater than or equal to it.

Consider the molecule "COc1ccc(F)c(-c2ccc(COc3cccc(CCC(=O)O)c3)cc2C(C)(C)C)c1" . Is its EC50 strictly less than 2000 nM? Y

Is it true that EC50 reported for "CC#C[C@@H](CC(=O)O)c1ccc(OCc2ccc(-c3cccc(OC)c3)cc2)cc1" is less than 2000 nM? Y

Given CC/C=C\C/C=C\C/C=C\C/C=C\C/C=C\C/C=C\CCC(=O)O [DOCONEXENT] , is recorded EC50 strictly lower than 2000 nM? N

Item "COc1ccc(F)c(-c2ccc(COc3cccc([C@@H](CC(=O)O)C4CCCCC4)c3)cc2C(C)(C)C)c1" : EC50 beneath 2000 nM, strictly? N

Report whether reported EC50 is lower than 2000 nM (strictly) for "CC#C[C@H](CC(=O)O)c1ccc(OCc2ccc(-c3cccc(OC)c3)cc2)cc1" N

====

Assay: Tmax in cynomolgus monkey at 2 mg/kg, po and 0.5 mg/kg, iv
Assay type: ADME, organism-based, Macaca fascicularis
Conditions: in vivo
assay.endpoint: Tmax (h)
Write the value in h as a bare number.

Given the entry "COc1ccc(F)c(-c2ccc(COc3cccc([C@@H](CC(=O)O)C4CC4)c3)cc2C2=CCCC2(C)C)c1" , report its measured Tmax. 2

====

Experiment: Clearance in rat at 2 mg/kg, po and 0.5 mg/kg, iv
Type: ADME, organism-based
Details: in vivo
assay.endpoint: clearance (mL/min/kg)
Report only the number, with the unit mL/min/kg understood.

clearance for "COc1ccc(F)c(-c2ccc(COc3cccc([C@@H](CC(=O)O)C4CC4)c3)cc2C2=CCCC2(C)C)c1" ? 15.2

====

Assignment: determine reported Efficacy for the given compounds.
Target: Free fatty acid receptor 1 (Homo sapiens)
Assay: Agonist activity at GPR40 expressed in CHO cells assessed as intrinsic efficacy after 20 seconds by aequorin bioluminescence assay in presence of 0.1 % human serum relative to AM-1638
Format: functional, cell-based
Respond with a number, then the unit of measure.

What value of Efficacy has been reported for the following compound? "COc1ccc(F)c(-c2ccc(COc3cccc([C@@H](CC(=O)O)C4CC4)c3)cc2C(C)(C)C)c1" 103%

Field request: Efficacy | item: "COc1ccc(F)c(-c2ccc(COc3cccc([C@@H](CC(=O)O)C(C)C)c3)cc2C(C)(C)C)c1" 86%

Report Efficacy for "CC#C[C@H](CC(=O)O)c1ccc(OCc2ccc(-c3cc(OC)ccc3F)cc2)cc1" please. 97%

I am curious: what Efficacy value has been reported for "COc1ccc(F)c(-c2ccc(COc3cccc([C@@H](CC(=O)O)c4ccccc4)c3)cc2C(C)(C)C)c1" ? 80%

Tell me the measured Efficacy of "CC/C=C\C/C=C\C/C=C\C/C=C\C/C=C\C/C=C\CCC(=O)O" , please. 67%

====

Experiment: Clearance in cynomolgus monkey at 2 mg/kg, po and 0.5 mg/kg, iv
Format: ADME, organism-based, Macaca fascicularis
Settings: in vivo
assay.endpoint: clearance

Please look up its clearance: "COc1ccc(F)c(-c2ccc(COc3cccc([C@@H](CC(=O)O)C4CC4)c3)cc2C2=CCCC2(C)C)c1" 13.5 mL/min/kg

====

Molecular target: Free fatty acid receptor 1 (Homo sapiens, UniProt O14842)
Test: Agonist activity at GPR40 expressed in CHO cells assessed as intrinsic efficacy after 20 seconds by aequorin bioluminescence assay in presence of 0.1 % human serum relative to AM-1638
Assay type: functional, cell-based
assay.endpoint: Efficacy (%)
All answers are understood in %, so give the number only.

So what Efficacy did "COc1ccc(F)c(-c2ccc(COc3cccc([C@@H](CC(=O)O)C4CC4)c3)cc2)c1" get with Free fatty acid receptor 1 (Homo sapiens, UniProt O14842)? 107

Notebook: pull reported Efficacy for Free fatty acid receptor 1 (Homo sapiens, UniProt O14842), entry "COc1ccc(F)c(-c2ccc(COc3cccc([C@@H](CC(=O)O)C(F)(F)F)c3)cc2C(C)(C)C)c1" 111

What reported Efficacy corresponds to "CCC[C@H](CC(=O)O)c1cccc(OCc2ccc(-c3cc(OC)ccc3F)c(C(C)(C)C)c2)c1" on Free fatty acid receptor 1 (Homo sapiens, UniProt O14842)? 94

So what Efficacy did "COc1ccc(F)c(-c2ccc(COc3cccc([C@@H](CC(=O)O)C4CCCCC4)c3)cc2C(C)(C)C)c1" get with Free fatty acid receptor 1 (Homo sapiens, UniProt O14842)? 41

For the record "COc1ccc(F)c(-c2ccc(COc3cccc([C@@H](CC(=O)O)C4CCC4)c3)cc2C(C)(C)C)c1" , what value of Efficacy is listed for Free fatty acid receptor 1 (Homo sapiens, UniProt O14842)? 106

What Efficacy appears in the records for this compound with Free fatty acid receptor 1 (Homo sapiens, UniProt O14842)? "COc1ccc(F)c(-c2ccc(COc3cccc(CCC(=O)O)c3)cc2)c1" 104

// fetch Free fatty acid receptor 1 (Homo sapiens, UniProt O14842) Efficacy for "CC#C[C@@H](CC(=O)O)c1ccc(OCc2ccc(-c3cccc(OC)c3)cc2)cc1" 47

Field: Efficacy (Free fatty acid receptor 1 (Homo sapiens, UniProt O14842)). Entry: CC#CC(CC(=O)O)c1ccc(OCc2ccc(-c3ccccc3)cc2)cc1 (racemic) 105

What value of Efficacy on Free fatty acid receptor 1 (Homo sapiens, UniProt O14842) does "COc1ccc(F)c(-c2ccc(COc3cccc([C@@H](CC(=O)O)C4CCCC4)c3)cc2C(C)(C)C)c1" have? 59

Test system Free fatty acid receptor 1 (Homo sapiens, UniProt O14842); read-out Efficacy; what value for "COc1ccc(F)c(-c2ccc(COc3cccc([C@H](CC(=O)O)C4CC4)c3)cc2C2=CCCC2(C)C)c1" ? 76

// fetch Free fatty acid receptor 1 (Homo sapiens, UniProt O14842) Efficacy for "CC[C@H](CC(=O)O)c1cccc(OCc2ccc(-c3cc(OC)ccc3F)c(C(C)(C)C)c2)c1" 110

I'm curious: which Efficacy was measured for "CC#C[C@H](CC(=O)O)c1ccc(OCc2ccc(-c3cccc(OC)c3)cc2)cc1" tested on Free fatty acid receptor 1 (Homo sapiens, UniProt O14842)? 99

# get_value(readout= Efficacy, system= Free fatty acid receptor 1 (Homo sapiens, UniProt O14842)) for "COc1ccc(F)c(-c2ccc(COc3cccc(CCC(=O)O)c3)cc2C(C)(C)C)c1" 100

Tell me reported Efficacy for "COc1ccc(F)c(-c2ccc(COc3ccc(CCC(=O)O)cc3)cc2)c1" , tested with Free fatty acid receptor 1 (Homo sapiens, UniProt O14842). 96

For Free fatty acid receptor 1 (Homo sapiens, UniProt O14842), provide Efficacy of CC#CC(CC(=O)O)c1ccc(OCc2ccc(-c3cccc(OC)c3)cc2)cc1 (racemic) please. 98
